- assay.system: T1, water-soluble hFcRn (human, UniProt P55899 24-297; P61769 21-119, limits assumed)
- T1 construct: also called shFcRn; human FcRn
- T1 sequence (P55899 24-297 limits assumed, chain 1 of 2): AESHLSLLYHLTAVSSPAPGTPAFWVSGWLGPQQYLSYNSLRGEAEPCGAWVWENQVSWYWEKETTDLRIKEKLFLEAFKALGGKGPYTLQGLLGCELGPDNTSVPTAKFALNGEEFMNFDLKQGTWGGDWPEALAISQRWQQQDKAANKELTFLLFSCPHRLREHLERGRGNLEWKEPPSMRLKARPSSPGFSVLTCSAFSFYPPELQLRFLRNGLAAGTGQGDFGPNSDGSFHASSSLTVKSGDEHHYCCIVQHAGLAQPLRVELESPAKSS
- T1 sequence (P61769 21-119 limits assumed, chain 2 of 2): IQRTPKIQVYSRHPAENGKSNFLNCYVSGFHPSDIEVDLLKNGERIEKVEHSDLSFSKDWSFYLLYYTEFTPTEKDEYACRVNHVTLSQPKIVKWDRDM
- measurement.description: SPR (Proteon XPR36, GLC chip), shFcRn immobilised, antibody as analyte, pH 6.0, 1:1 Langmuir, mean of six runs
Please provide measured koff for the entries that follow.
Give bare numbers, in s⁻¹.

Answered cases to consult:
>>> number("HL161D antibody (antibody, human IgG1, V domains shown, the VL entry runs a few residues into the constant region) VH: QLQLQESGPGLVKPSETLSLTCTVSGGSISSSSYYWGWIRQPPGKGLEWIGNIYYSGSTYYNPSLMSRVTISVDTSKNQFSLKLSSVTAADTAVYYCARQLSYNWNDRLFDYWGQGTLVTVSS VL: SYELTQPLSVSVALGQTARITCGGNNIGSKNVHWYQQKPGQAPVLVIYRDSNRPSGIPERFSGSNSGNTATLTISRAQAGDEADYYCQVWDSSTVVFGGGTKLTVLGQPKAAPSVTL")
0.00138
>>> number("HL161B antibody (antibody, V domains shown, the VL entry runs a few residues into the constant region) VH: QLLLQESGPGLVKPSETLSLTCTVSGGSLSSSFSYWVWIRQPPGKGLEWIGTIYYSGNTYYNPSLKSRLTISVDTSKNHFSLNLSSVTAADTAVYYCARRAGILTGYLDSWGQGTLVTVSS VL: SYVLTQSPSVSVAPGQTARITCGGNNIGSKSVHWYQQKPGQAPVLVVYDDSDRPSGIPERFSASNSGNTATLTISRVEAGDEADYYCQVWDSSSDHVVFGGGTKLTVLGQPKAAPSVTL")
0.000735
>>> number("HL161C antibody (antibody, human IgG1, V domains shown) VH: QVQLVQSGAEVKKPGASVKVSCKASGYTFTGCYMHWVRQAPGQGLEWMGRINPNSGGTNYAQKFQGRVTMTRDTSISTAYMDLSRLRSDDTAVYYCARDYSGWSFDYWGQGTLVTVSS VL: DIQMTQSPSSLSASVGDRVTITCRASQGISNYLAWFQQKPGKAPKSLIYAASSLQSGVPSKFSGSGSGTDFTLTISSLQSEDFATYYCQQYDSYPPTFGGGTKVEIKRTVAAPSVFI")
0.000332

Kindly consider the entry below.
response.value for HL161A antibody (antibody, human IgG1, V domains shown) VH: EVQLLESGGGLVQPGGSLRLSCAASEFTFGSCVMTWVRQAPGKGLEWVSVISGSGGSTYYADSVKGRFTISRDNSKNTLYLQMNSLRAEDTAVYYCAKTPWWLRSPFFDYWGQGTLVTVSS VL: SYVLTQPPSVSVAPGQTARITCGGNNIGSTSVHWYQQKPGQAPVLVVHDDSDRPSGIPERFSGSNSGNTATLTISRVEAGDEADYYCQVRDSSSDHVIFGGGTKLTVLGQPKAAPSVTL (field: koff) = 0.000326
